test: Half life in Wistar Han rat at 1 mg/kg, iv by LC-MS/MS analysis; type: ADME, organism-based; settings: in vivo
quantity kind: half-life (h)

1) COc1ncc(C)cc1CC[C@](O)(CC(=O)O)C(=O)O : 1
2) CC(C)(C)c1ccc(CCC(O)(CC(=O)O)C(=O)O)cc1 (racemic) : 1.2
3) COc1ncc(C)cc1CC[C@@](O)(CC(=O)O)C(=O)O : 1.7
4) CCOc1ncccc1CC[C@@](O)(CC(=O)O)C(=O)O : 0.9
5) CC(C)(C)c1ccc(CC[C@@](O)(CC(=O)O)C(=O)O)cc1 : 1

====

assay: Clearance in rat hepatocytes assessed per 10^6 cells; format: ADME, cell-based, Hepatocyte; details: read-out: CLH
quantity kind: hepatocyte CLint

1. COc1ncc(C)cc1CC[C@@](O)(CC(=O)O)C(=O)O : < 6 µL/min/1e6 cells
